- experimentalSystem: T1, outer membrane porin OmpF (UniProt P02931 23-362)
- T1 sequence: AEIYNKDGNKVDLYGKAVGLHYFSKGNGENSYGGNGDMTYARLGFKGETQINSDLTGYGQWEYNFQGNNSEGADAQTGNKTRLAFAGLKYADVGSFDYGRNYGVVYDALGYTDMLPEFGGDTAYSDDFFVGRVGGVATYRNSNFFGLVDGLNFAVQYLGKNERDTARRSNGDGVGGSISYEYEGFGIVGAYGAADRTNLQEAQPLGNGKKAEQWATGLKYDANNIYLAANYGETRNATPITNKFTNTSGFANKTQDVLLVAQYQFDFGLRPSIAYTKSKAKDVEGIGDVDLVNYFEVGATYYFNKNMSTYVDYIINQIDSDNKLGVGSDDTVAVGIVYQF
- assayRemarks: native MS
pKd: −log10 of the molar value. No end group written: not given here.

[
  {
    "binder": "SGGDGRGHNTGAHSTSG-NH2 [OBS1 peptide (peptide mimic of colicin OmpF Binding Sequence 1)]",
    "pKd": 6.16
  }
]
